tested on: MDA-MB-468 human breast cancer cell line; assay: Cell viability (MTS) assay; assay type: cell-based; conditions: 48 hours
METRIC_NAME: pIC50
pIC50 here is simply -log10 of the concentration when that concentration is written in mol/L.

Lookup: Which pIC50 is listed for Oc1cccc(-c2nc(N3CCOCC3)c3oc4ncccc4c3n2)c1 ?
Found: 6.35

* * *

system: MDA-MB-468 human breast cancer cell line; test: Cell viability (MTS) assay; assay type: cell-based; conditions: 72 hours
METRIC_NAME: pIC50
Reminder that pIC50 means the negative base-10 logarithm of the concentration expressed in mol/L.

Lookup: Dear colleague, I am looking for the recorded pIC50 of the following molecule: Oc1cccc(-c2nc(N3CCOCC3)c3oc4ncccc4c3n2)c1 [PI103]
Found: 6.51
